System: Klebsiella pneumoniae
protocol_notes: Antibacterial activity against Klebsiella pneumoniae MTCC 3384 assessed as zone of inhibition at 100 ug/well measured after 24 hrs by agar well diffusion method
Format: functional
assay_conditions: MTCC 3384, 24 h, read-out: DIZ
Label 1.0 for high-side zone of inhibition at 100 µg/disc (at or above 20 mm) and 0.0 for low-side zone of inhibition at 100 µg/disc (below it).

Example cases with answers are listed next.
{"columns": ["molecule", "assayed_system", "qualitative_label"],
 "data": [
  ["CN[C@@H]1[C@H](O[C@H]2[C@H](O[C@H]3[C@H](O)[C@@H](O)[C@H](N=C(N)N)[C@@H](O)[C@@H]3N=C(N)N)O[C@@H](C)[C@]2(O)C=O)O[C@@H](CO)[C@H](O)[C@H]1O.CN[C@@H]1[C@H](O[C@H]2[C@H](O[C@H]3[C@H](O)[C@@H](O)[C@H](N=C(N)N)[C@@H](O)[C@@H]3N=C(N)N)O[C@@H](C)[C@]2(O)C=O)O[C@@H](CO)[C@H](O)[C@H]1O.O=S(=O)(O)O.O=S(=O)(O)O.O=S(=O)(O)O [STREPTOMYCIN SULFATE]", "Klebsiella pneumoniae", 1.0],
  ["CC1(C)O[C@H]2O[C@@H]3COB(c4cccc(/N=C/c5ccc6ccccc6c5O)c4)O[C@@H]3[C@H]2O1", "Klebsiella pneumoniae", 0.0],
  ["CC(C)c1ccc(/N=C/c2ccc(B3OC[C@H]4O[C@@H]5OC(C)(C)O[C@@H]5[C@H]4O3)cc2)cc1", "Klebsiella pneumoniae", 1.0]
]}

Q: Would you say `OB(O)c1ccc(/C=N/c2ccc(F)cc2)cc1` shows zone of inhibition at 100 µg/disc at minimum 20 mm?
A: 0.0

* * *

System: Staphylococcus aureus
protocol_notes: Antibacterial activity against Staphylococcus aureus MTCC 3160 measured after 24 hrs by NCCL protocol based broth dilution method
Assay type: functional
assay_conditions: MTCC 3160, 24 h
Mark Fulfilled only for MIC values smaller than 100 µg/mL; exact matches and larger values are Not fulfilled.

{"columns": ["compound", "qualitative_label"],
 "data": [
  ["OB(O)c1ccc(/C=N/c2ccc(F)cc2)cc1", "Not fulfilled"],
  ["CC1(C)O[C@H]2O[C@@H]3COC(c4ccc(/C=N\\c5ccc(F)cc5)cc4)O[C@@H]3[C@H]2O1 (some centres not stated)", "Not fulfilled"],
  ["CC1(C)O[C@H]2O[C@@H]3COB(c4ccc(/C=N/c5ccc(Br)cc5)cc4)O[C@@H]3[C@H]2O1", "Not fulfilled"],
  ["CC1(C)O[C@H]2O[C@@H]3COB(c4ccc(/C=N/c5ccccc5)cc4)O[C@@H]3[C@H]2O1", "Not fulfilled"],
  ["CN[C@@H]1[C@H](O[C@H]2[C@H](O[C@H]3[C@H](O)[C@@H](O)[C@H](N=C(N)N)[C@@H](O)[C@@H]3N=C(N)N)O[C@@H](C)[C@]2(O)C=O)O[C@@H](CO)[C@H](O)[C@H]1O.CN[C@@H]1[C@H](O[C@H]2[C@H](O[C@H]3[C@H](O)[C@@H](O)[C@H](N=C(N)N)[C@@H](O)[C@@H]3N=C(N)N)O[C@@H](C)[C@]2(O)C=O)O[C@@H](CO)[C@H](O)[C@H]1O.O=S(=O)(O)O.O=S(=O)(O)O.O=S(=O)(O)O [STREPTOMYCIN SULFATE]", "Fulfilled"]
]}

Q: Please let me know if `CC1(C)O[C@H]2O[C@@H]3COB(c4cccc(/C=N/c5ccc(Br)cc5)c4)O[C@@H]3[C@H]2O1` shows MIC below 100 µg/mL.
A: Not fulfilled
